Items are presented alongside their recorded λmax.
Assay: Determination of maximum absorption wavelength (λmax) after UV irradiation in solution
Assay type: physicochemical
Settings: chloroform; irradiated with ultraviolet light with a maximum wavelength of 350 nanometers
Procedure: Each of the photochromic compounds (compound P) formed in step 2 of Examples 1-13 and Comparative Example 1 were independently dissolved in separate containers of chloroform. […] Each of the chloroform-dissolved photochromic compounds of Examples 1-13 and Comparative Examples 1-2 were then irradiated with ultraviolet light with a maximum wavelength of 350 nanometers and were measured for maximum absorption wavelength) λmax. The fade time, T1/2 was then determined for each of the irradiated compounds. […]
Field: numeric (Nanometers). Do not append units.

// known answers, use as guide
# MOLECULE, λmax, Nanometers
data = [
    ("CC1CCc2ccccc2C12C=Cc1c(ccc3ccccc13)O2 (stereo not shown)", 444),
    ("COc1ccc2c3c(ccc2c1)OC1(C=C3)c2ccccc2CCC1C (stereo not shown)", 468),
]

Bench note: what λmax did C1=CC2(Oc3ccc4ccccc4c31)c1ccccc1-c1ccccc12 show? 445

Next entry: C1=CC(c2ccccc2)(c2ccccc2)Oc2ccc3ccccc3c21 [Comparative Example 2, 3,3-diphenyl-naphtho-3H[2,1-b]pyran, reference compound] 435
